Value source: paper PMC3555362

Property: pKd; scope: individual molecules
# target-entity: polo-box domain (PBD) of Plk1, His6-PBD345-603 (Homo sapiens)
# Sequence (P53350 345-603): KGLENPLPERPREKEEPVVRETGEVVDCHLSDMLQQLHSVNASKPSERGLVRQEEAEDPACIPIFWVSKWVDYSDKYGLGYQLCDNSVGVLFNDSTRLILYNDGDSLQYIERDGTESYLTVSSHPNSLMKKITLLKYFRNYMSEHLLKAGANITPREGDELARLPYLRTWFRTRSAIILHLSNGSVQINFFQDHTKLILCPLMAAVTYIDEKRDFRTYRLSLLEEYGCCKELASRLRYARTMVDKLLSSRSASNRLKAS
Square brackets hold non-standard residues; d marks the D form. Peptide text beside a SMILES is read from it. pT = C[C@@H](OP(=O)(O)O)[C@H](N)C(=O)O; pS = N[C@@H](COP(=O)(O)O)C(=O)O
Please note pKd is a logarithmic value: minus log10 of concentration in mol/L. Answer with that number alone.

Solved entries:
molecule: CC(=O)N[C@@H](C)C(=O)N[C@@H](CC(=O)O)C(=O)N1CCC[C@H]1C(=O)N1CCC[C@H]1C(=O)N[C@@H](CC(C)C)C(=O)N[C@@H](Cc1c[nH]cn1)C(=O)N[C@@H](CO)C(=O)N[C@H](C(=O)N[C@@H](C)C(N)=O)[C@@H](C)OP(=O)(O)O [ADPPLHSpTA] (Ac-ADPPLHS[pT]A-NH2)
target-entity: polo-box domain (PBD) of Plk1, His6-PBD345-603 (Homo sapiens)
value: 5.88

molecule: CC(=O)N[C@@H](CC(=O)O)C(=O)N1CCC[C@H]1C(=O)N1CCC[C@H]1C(=O)N[C@@H](CC(C)C)C(=O)N[C@@H](Cc1c[nH]cn1)C(=O)N[C@@H](CO)C(=O)N[C@H](C(=O)N[C@@H](C)C(N)=O)[C@@H](C)OP(=O)(O)O [DPPLHSpTA] (Ac-DPPLHS[pT]A-NH2)
target-entity: polo-box domain (PBD) of Plk1, His6-PBD345-603 (Homo sapiens)
value: 5.67

molecule: CC(=O)N[C@@H](Cc1ccccc1)C(=O)N[C@@H](CC(=O)O)C(=O)N1CCC[C@H]1C(=O)N1CCC[C@H]1C(=O)N[C@@H](CC(C)C)C(=O)N[C@@H](Cc1c[nH]cn1)C(=O)N[C@@H](CO)C(=O)N[C@H](C(=O)N[C@@H](C)C(N)=O)[C@@H](C)OP(=O)(O)O [FDPPLHSpTA] (Ac-FDPPLHS[pT]A-NH2)
target-entity: polo-box domain (PBD) of Plk1, His6-PBD345-603 (Homo sapiens)
value: 6.60

Recall the recorded pKd for CSCC[C@H](NC(=O)[C@H](COP(=O)(O)O)NC(=O)[C@H](CO)NC(=O)[C@H](CCSC)NC(=O)[C@@H]1CCCN1C(=O)[C@@H]1CCCN1C(=O)[C@@H]1CCCN1C(=O)[C@H](CCSC)NC(=O)[C@H](Cc1ccccc1)NC(C)=O)C(N)=O [FMPPPMSpSM] (Ac-FMPPPMS[pS]M-NH2) with polo-box domain (PBD) of Plk1, His6-PBD345-603 (Homo sapiens) and state it.
3.29

----------
Property: Thermal shift, Δ; scope: individual compounds
# Tested on: polo-box domain (PBD) of polo-like kinase 1 (Plk1), wild-type (His6-PBD345-603 WT)
# assay-remarks: fluorescence-based thermal stability
# Format: binding, human
# condition-details: difference between wild-type and Y417A/Y421A thermal shifts
Square brackets hold non-standard residues; d marks the D form. Peptide text beside a SMILES is read from it. pT = C[C@@H](OP(=O)(O)O)[C@H](N)C(=O)O; pS = N[C@@H](COP(=O)(O)O)C(=O)O
Kindly answer with a numeric value in °C, unit omitted.

Solved entries:
compound: CSCC[C@H](NC(=O)[C@H](COP(=O)(O)O)NC(=O)[C@H](CO)NC(=O)[C@H](CCSC)NC(=O)[C@@H]1CCCN1C(=O)[C@@H]1CCCN1C(=O)[C@@H]1CCCN1C(=O)[C@H](CCSC)NC(=O)[C@H](Cc1ccccc1)NC(C)=O)C(N)=O [FMPPPMSpSM] (Ac-FMPPPMS[pS]M-NH2)
target-entity: polo-box domain (PBD) of polo-like kinase 1 (Plk1), wild-type (His6-PBD345-603 WT)
Thermal shift, Δ, °C: 0.0
//
compound: CC(=O)N[C@@H](C)C(=O)N[C@@H](CC(=O)O)C(=O)N1CCC[C@H]1C(=O)N1CCC[C@H]1C(=O)N[C@@H](CC(C)C)C(=O)N[C@@H](Cc1c[nH]cn1)C(=O)N[C@@H](CO)C(=O)N[C@H](C(=O)N[C@@H](C)C(N)=O)[C@@H](C)OP(=O)(O)O [ADPPLHSpTA] (Ac-ADPPLHS[pT]A-NH2)
target-entity: polo-box domain (PBD) of polo-like kinase 1 (Plk1), wild-type (His6-PBD345-603 WT)
Thermal shift, Δ, °C: −0.2
//
compound: CC(=O)N[C@@H](CC(=O)O)C(=O)N1CCC[C@H]1C(=O)N1CCC[C@H]1C(=O)N[C@@H](CC(C)C)C(=O)N[C@@H](Cc1c[nH]cn1)C(=O)N[C@@H](CO)C(=O)N[C@H](C(=O)N[C@@H](C)C(N)=O)[C@@H](C)OP(=O)(O)O [DPPLHSpTA] (Ac-DPPLHS[pT]A-NH2)
target-entity: polo-box domain (PBD) of polo-like kinase 1 (Plk1), wild-type (His6-PBD345-603 WT)
Thermal shift, Δ, °C: −0.4

Then this compound:
Which value of Thermal shift, Δ has been reported for CC(=O)N[C@@H](Cc1ccccc1)C(=O)N[C@@H](CC(=O)O)C(=O)N1CCC[C@H]1C(=O)N1CCC[C@H]1C(=O)N[C@@H](CC(C)C)C(=O)N[C@@H](Cc1c[nH]cn1)C(=O)N[C@@H](CO)C(=O)N[C@H](C(=O)N[C@@H](C)C(N)=O)[C@@H](C)OP(=O)(O)O [FDPPLHSpTA] (Ac-FDPPLHS[pT]A-NH2) in the records?
4.3
